Assay: LNP encapsulation efficiency (Quant-it Ribogreen)
Assay type: physicochemical
Settings: mRNA LNP, cationic lipid/DSPC/cholesterol/PEG-lipid 50:10:38.5:1.5
quantity measured: Encapsulation efficiency (%)

Inquiry: Would you kindly share the measured Encapsulation efficiency (%) for CCCCCCCCNC(=O)C(CCCC)N(CCCN(C)C)C(=O)CCCCCCC(=O)OC(CCCCCCCC)CCCCCCCC (stereo not drawn) ?
Reply text: 95.33

Inquiry: Okay, and CCCCCCCC(C(=O)NCCCCCCCCCC(=O)OC(CCCCCC)CCCCCC)N(CCN(CCO)C1CCC1)C(=O)CCCCCCCCCC(=O)OC(CCCCCC)CCCCCC (stereo not drawn) ?
Reply text: 81.83

Inquiry: Okay, and CCCCCCCCC(CCCCCCCC)OC(=O)CCCCCC(=O)N(CCCN(C)C)C(CCCCCCCC)C(=O)NCCCCCC(=O)OCCC12CC3CC(CC(C3)C1)C2 (stereo not drawn) ?
Reply text: 94.62

Inquiry: Okay, and CCCCCCCC(C(=O)NCCCCCCCCCC(=O)OC(CCCCCC)CCCCCC)N(CCOC(=O)CCN1CCCC1)C(=O)CCCCCCCCCC(=O)OC(CCCCCC)CCCCCC (stereo not drawn) ?
Reply text: 69.52

Inquiry: Okay, and CCCCCCCC(C(=O)NCCCCCCCCCC(=O)OC(CCCCCC)CCCCCC)N(CCCN(C)C)C(=O)CCCCCCCCCC(=O)OCC1CC=CCC1 (stereo not drawn) ?
Reply text: 89.13

Inquiry: Okay, and CCCCCCCCNC(=O)C(CCCCCCCC)N(CCN(CC)CCO)C(=O)CCCCCCC(=O)OC(CCCCCCCC)CCCCCCCC (stereo not drawn) ?
Reply text: 93.73

Inquiry: Okay, and CCCCCCCC/C=C\CCCCCCCCNC(=O)C(CCCCCCCC)N(CCCCCCCC/C=C\CCCCCCCC)C(=O)CCCN(C)C (stereo not drawn) ?
Reply text: 82.31

Inquiry: Okay, and CCCCCCCCC(C(=O)NCCCCCCCCCC(=O)OCC12CC3CC(CC(C3)C1)C2)N(CCCN(C)C)C(=O)CCCCCCCCCC(=O)OC(CCCCCC)CCCCCC (stereo not drawn) ?
Reply text: 87.17

Inquiry: Okay, and CCCCCCCCC(C(=O)NCCCCCCCCCC(=O)OCCCCCC)N(CCCN1CCCC1)C(=O)CCCCCCCCCC(=O)OC(CCCCCC)CCCCCC (stereo not drawn) ?
Reply text: 92.48

Inquiry: Okay, and CCCCCCCCC(CCCCCC)C(=O)OCCCCCCN(CCCCO)CCCCCCOC(=O)C(CCCCCC)CCCCCCCC (stereo not drawn) ?
Reply text: 93.27

Inquiry: Okay, and CCCCCCCC(C(=O)NCCCCCCCCCC(=O)OC(CCCCCC)CCCCCC)N(COC(=O)CCN(C)C)C(=O)CCCCCCCCCC(=O)OC(CCCCCC)CCCCCC (stereo not drawn) ?
Reply text: 93.95

Inquiry: Okay, and CCCCCCCC(C(=O)NCCCCCCCCCC(=O)OC(CCCCCC)CCCCCC)N(CCN(CO)CO)C(=O)CCCCCCCCCC(=O)OC(CCCCCC)CCCCCC (stereo not drawn) ?
Reply text: 85.36

----------
Assay: LNP encapsulation efficiency (Quant-it Ribogreen)
Format: physicochemical
Conditions: mRNA LNP, cationic lipid/DSPC/cholesterol/PEG-lipid 50:10:38.5:1.5
quantity measured: Encapsulation efficiency (%)

Sample records with Encapsulation efficiency (%):
Inquiry: Would you kindly share the measured Encapsulation efficiency (%) for CCCCCCC(CCCCCC)OC(=O)CCCCCCCCCNC(=O)C(CCCCCCCCCC(=O)OC(CCCCCC)CCCCCC)N(CCN1CCN(CCO)CC1)C(=O)CCN1CCN(CCO)CC1 (stereo not drawn) ?
Reply text: 69.71

Inquiry: Okay, and CCCCCC/C=C\CCCCCCCC(C(=O)NCCCCCC)N(CCCN(C)C)C(=O)CCCCCCC(=O)OC(CCCCCCCC)CCCCCCCC (stereo not drawn) ?
Reply text: 93.54

Inquiry: Okay, and CCCCCCCC(C(=O)NCCCCCCCCCC(=O)OC(CCCCCC)CCCCCC)N(CCCN(CCO)C1CCCC1)C(=O)CCCCCCCCCC(=O)OC(CCCCCC)CCCCCC (stereo not drawn) ?
Reply text: 93.45

Inquiry: Okay, and CCCCCCCC(C(=O)NCCCCCCCCCC(=O)OC(CCCCCC)CCCCCC)N(CCCN1CCCC1)C(=O)CCCCCCCCCC(=O)OC(CCCCCC)CCCCCC (stereo not drawn) ?
Reply text: 50.77

1. CCCCC/C=C\C/C=C\CCCCCCCC(=O)N(CCCN1CCCC1)CC(=O)NCCCCCCCCCCCCCC
2. CCCCCCCCNC(=O)C(CCCCCCCC)N(CCCN(C)C)C(=O)CCCCCCC(=O)OC(CCCCCCCC)CCCCCCCC (stereo not drawn)
Inquiry: Lower value of Encapsulation efficiency (%) belongs to which: 1 or 2 ? Returns: label corresponding to the selected item.
Reply text: 1
(1: 54.53%, 2: 94.09%)

----------
Test: LNP size and PDI by dynamic light scattering
Type: physicochemical
Settings: mRNA LNP, cationic lipid/DSPC/cholesterol/PEG-lipid 50:10:38.5:1.5
quantity measured: Size (nm)

Sample records with Size (nm):
Inquiry: Would you kindly share the measured Size (nm) for CCCCCCCCNC(=O)C(CCCCCCCC)N(CCCN(CC)CC)C(=O)CCCCCCC(=O)OC(CCCCCCCC)CCCCCCCC (stereo not drawn) ?
Reply text: 79.84

Inquiry: Okay, and CCCCCCCCC(CCCCCC)C(=O)OCCCCCCN(CCCCO)CCCCCCOC(=O)C(CCCCCC)CCCCCCCC (stereo not drawn) ?
Reply text: 70.12

1. CCCCCCCCCCOCCCCCCCC(=O)N(CCCN(C)C)C(CCCCCCCC)C(=O)NCCCCCCCC (stereo not drawn)
2. CCCCCCCCC(C(=O)NCCCCCCCCCC(=O)OCCCCCC)N(CCCN1CCCC1)C(=O)CCCCCCCCCC(=O)OCCCCCC (stereo not drawn)
3. CCCCCCCCC(C(=O)NCCCCCCCCCC(=O)OC(CCCCCC)CCCCCC)N(CCCN(C)C)C(=O)CCCCCCCCCC(=O)OC(CCCCCC)CCCCCC (stereo not drawn)
Inquiry: # rank by Size (nm), ascending (min first) Give the labels in the order specified.
Reply text: 2, 1, 3
(2: 55.75 nm, 1: 90.78 nm, 3: 225.6 nm)

I. CCCCC/C=C\C/C=C\CCCCCCCC(=O)N(CCCN1CCCC1)CC(=O)NCCCCCCCCCCCCCC
II. CCCCC/C=C\C/C=C\CCCCCCCCNC(=O)C(CCCCCCCC)N(CCCCCCCC/C=C\C/C=C\CCCCC)C(=O)CCCN1CCN(C)CC1 (stereo not drawn)
Inquiry: Lower value of Size (nm) belongs to which: I or II ? Returns: label corresponding to the selected item.
Reply text: II
(II: 64.58 nm, I: 95.73 nm)

1. CCCCCCCC(C(=O)NCCCCCCCCCC(=O)OC(CCCCCC)CCCCCC)N(CCN(CCO)C1CCC1)C(=O)CCCCCCCCCC(=O)OC(CCCCCC)CCCCCC (stereo not drawn)
2. CCCCCCC(CCCCCC)OC(=O)CCCCCCCCCNC(=O)C(CCCCCCCCCC(=O)OC(CCCCCC)CCCCCC)N(CCN1CCN(CCO)CC1)C(=O)CCN1CCN(CCO)CC1 (stereo not drawn)
Inquiry: Lower value of Size (nm) belongs to which: 1 or 2 ? Returns: label corresponding to the selected item.
Reply text: 1
(1: 70.27 nm, 2: 104.5 nm)

----------
Test: LNP encapsulation efficiency (Quant-it Ribogreen)
Format: physicochemical
Details: mRNA LNP, cationic lipid/DSPC/cholesterol/PEG-lipid 50:10:38.5:1.5
quantity measured: Encapsulation efficiency (%)

Inquiry: Would you kindly share the measured Encapsulation efficiency (%) for CCCCCCC(CCCCCC)OC(=O)CCCCCCCCCNC(=O)C(CCCCCCCCCC(=O)OC(CCCCCC)CCCCCC)N(CCCN(CC)CC)C(=O)CCCN(CC)CC (stereo not drawn) ?
Reply text: 92.11

Inquiry: Okay, and CCCCCCCCCCCOC(=O)CCCCCN(CCO)CCCCCCCC(=O)OC(CCCCCCCC)CCCCCCCC [SM-102, reference compound] ?
Reply text: 96.25

Inquiry: Okay, and CCCCCCCCC(CCCCCC)COC(=O)CCCCCCCCCNC(=O)C(CCCCCCCC)N(CCCN1CCCC1)C(=O)CCCCCCCCCC(=O)OCC(CCCCCC)CCCCCCCC (stereo not drawn) ?
Reply text: 97.34

Inquiry: Okay, and CCCCCCCCNC(=O)C(CCCCC)N(CCCN(C)C)C(=O)CCCCCCC(=O)OC(CCCCCCCC)CCCCCCCC (stereo not drawn) ?
Reply text: 85.93

Inquiry: Okay, and CCCCCCCCC(C(=O)NCCCCCCCCCC(=O)OCC12CC3CC(CC(C3)C1)C2)N(CCCN1CCCC1)C(=O)CCCCCCCCCC(=O)OC(CCCCCC)CCCCCC (stereo not drawn) ?
Reply text: 92.88

Inquiry: Okay, and CCCCCCCCNC(=O)C(CCCCCCCC)N(CCCN1CCCC1)C(=O)CCCCCCC(=O)OC(CCCCCCCC)CCCCCCCC (stereo not drawn) ?
Reply text: 92.48
